target-of-assay: hERG (Homo sapiens, UniProt Q12809)
assay-remarks: PDSP competitive binding assay (safety/nuisance target)
condition-label: single determination; read-out: hERG Ki
measured-metric: Ki

Ki in this record for OCCCN1CC[C@@H]2C[C@H]1c1cc(-c3ccc(C(F)(F)F)cc3)ccc12 [FEM-1689] : 839 nM

====

target-of-assay: NET (Homo sapiens)
assay-remarks: PDSP competitive binding assay
condition-label: Ki, NET, Run 2
measured-metric: Ki (nM)
Report as a plain number; the unit nM is understood.

Ki recorded for this compound, "OCCCN1CC[C@@H]2C[C@H]1c1cc(-c3ccc(C(F)(F)F)cc3)ccc12" , is 221

====

target-of-assay: σ1R (Homo sapiens)
assay-remarks: Competition binding with [3H]-(+)-pentazocine (NIMH PDSP)
measured-metric: pKi
Keep in mind that pKi stands for -log10 of concentration in molar terms.

Sample OCCCN1CC[C@@H]2C[C@H]1c1cc(-c3ccc(C(F)(F)F)cc3)ccc12 [FEM-1689] ; pKi observed: 6.69

====

target-of-assay: hERG (Homo sapiens)
assay-remarks: PDSP competitive binding assay (safety/nuisance target)
condition-label: dose response curve; read-out: Ki, HERG
measured-metric: Ki (nM)
Write down the numeric answer in nM and omit the unit.

Record "OCCCN1CC[C@@H]2C[C@H]1c1cc(-c3ccc(C(F)(F)F)cc3)ccc12" , field Ki: 839

====

Test system: p-eIF2α in HEK293T cells
assay-remarks: p-eIF2α ICC and spectrophotometry in HEK293T cells
Format: cell-based, human
condition-label: Homo sapiens, HEK-293T, 2 h, 2 h treatment
measured-metric: IC50
Respond with the figure and its unit, in that order.

# IC50 of "OCCCN1CC[C@@H]2C[C@H]1c1cc(-c3ccc(C(F)(F)F)cc3)ccc12" = 5.9 nM

====

System: p-eIF2α in HEK293T cells
assay-remarks: p-eIF2α ICC and spectrophotometry in HEK293T cells
Type: cell-based, human
condition-label: 16 h treatment
measured-metric: IC50 (nM)
All answers are understood in nM, so give the number only.

Recorded IC50 (compound "OCCCN1CC[C@@H]2C[C@H]1c1cc(-c3ccc(C(F)(F)F)cc3)ccc12" ): 0.74

====

target-of-assay: σ1R (Homo sapiens)
assay-remarks: Competition binding with [3H]-(+)-pentazocine (NIMH PDSP)
condition-label: read-out: σ1R Ki; averages ± SD
measured-metric: pKi
Scale for pKi: -log10 of concentration given in mol/L; no unit attached.

# compound "OCCCN1CC[C@@H]2C[C@H]1c1cc(-c3ccc(C(F)(F)F)cc3)ccc12" ; its pKi = 6.78

====

measured-metric: Ki

The observed Ki for OCCCN1CC[C@@H]2C[C@H]1c1cc(-c3ccc(C(F)(F)F)cc3)ccc12 [FEM-1689] when tested with 5HT6 (Homo sapiens, UniProt P50406) stands at > 10 µM

====

target-of-assay: KOR (Homo sapiens, UniProt P41145)
assay-remarks: PDSP competitive binding assay
condition-label: read-out: KOR Ki
measured-metric: pKi
Please express pKi as -log10 of the molar concentration.

OCCCN1CC[C@@H]2C[C@H]1c1cc(-c3ccc(C(F)(F)F)cc3)ccc12 [FEM-1689] yielded pKi of 5.15

====

target-of-assay: NET (Homo sapiens)
assay-remarks: PDSP competitive binding assay
condition-label: read-out: NET Ki; average of four Ki determinations
measured-metric: Ki (nM)
Give the value in nM but do not write nM after it.

For record "OCCCN1CC[C@@H]2C[C@H]1c1cc(-c3ccc(C(F)(F)F)cc3)ccc12" the listed Ki is 405
